MIC for assorted molecules
test system: S. aureus MRSA: USA300; test: CLSI broth dilution MIC determination; assay type: cell-based; conditions: Staphylococcus aureus; S. aureus MRSA: USA300 (MP-549, msr(a)); read-out: MIC
MEASUREMENT_TYPE: MIC (µg/mL)

[[record]]
molecule = "CC[C@H]1OC(=O)[C@@](C)(F)C(=O)[C@H](C)[C@@H](O[C@@H]2OC(C)CC(N(C)C)C2O)[C@](C)(OC)C[C@@H](C)C(=O)[C@H](C)[C@H]2N(CC#CCn3cc(-c4cccc(N)c4)nn3)C(=O)O[C@]12C (some centres unmarked)"
measurement_type = "MIC"
result_qualifier = "="
assay_value = 0.5

[[record]]
molecule = "CC[C@H]1OC(=O)[C@H](C)C(=O)[C@H](C)[C@@H](O[C@@H]2OC(C)CC(N(C)C)C2O)[C@](C)(OC)C[C@@H](C)C(=O)[C@H](C)[C@H]2N(NCCCn3nc4ccccc4n3)C(=O)O[C@]12C (some centres unmarked)"
measurement_type = "MIC"
result_qualifier = "="
assay_value = 0.5

[[record]]
molecule = "CC[C@H]1OC(=O)[C@H](C)C(=O)[C@H](C)[C@@H](O[C@@H]2OC(C)CC(N(C)C)C2O)[C@](C)(OC)C[C@@H](C)C(=O)[C@H](C)[C@H]2N(NCCCn3nnc4ccccc43)C(=O)O[C@]12C (some centres unmarked)"
measurement_type = "MIC"
result_qualifier = "="
assay_value = 0.5

[[record]]
molecule = "CC[C@H]1OC(=O)[C@@H](C)C(=O)[C@H](C)[C@@H](O[C@@H]2OC(C)CC(N(C)C)C2O)[C@](C)(OC)C[C@@H](C)C(=O)[C@H](C)[C@H]2N(C/C=C/Cn3cc(-c4cccc(N)c4)nn3)C(=O)O[C@]12C (some centres unmarked)"
measurement_type = "MIC"
result_qualifier = ">"
assay_value = 32

[[record]]
molecule = "CC[C@H]1OC(=O)[C@H](C)C(=O)[C@H](C)[C@@H](O[C@@H]2OC(C)CC(N(C)C)C2O)[C@](C)(OC)C[C@@H](C)C(=O)[C@H](C)[C@H]2N(CC#CCn3cc(-c4cc(F)ccn4)nn3)C(=O)O[C@]12C (some centres unmarked)"
measurement_type = "MIC"
result_qualifier = "="
assay_value = 0.125

[[record]]
molecule = "CC[C@H]1OC(=O)[C@@](C)(F)C(=O)[C@H](C)[C@@H](O[C@@H]2OC(C)CC(N(C)C)C2O)[C@](C)(OC)C[C@@H](C)C(=O)[C@H](C)[C@H]2N(CC#CCn3cc(-c4cccc(F)n4)nn3)C(=O)O[C@]12C (some centres unmarked)"
measurement_type = "MIC"
result_qualifier = "="
assay_value = 0.125

[[record]]
molecule = "CC[C@H]1OC(=O)[C@@](C)(F)C(=O)[C@H](C)[C@@H](O[C@@H]2OC(C)CC(N(C)C)C2O)[C@](C)(OC)C[C@@H](C)C(=O)[C@H](C)[C@H]2N(CC#CCn3cc(-c4cc(F)nc(F)n4)nn3)C(=O)O[C@]12C (some centres unmarked)"
measurement_type = "MIC"
result_qualifier = "="
assay_value = 8

[[record]]
molecule = "CC[C@H]1OC(=O)[C@@](C)(F)C(=O)[C@H](C)[C@@H](O[C@@H]2OC(C)CC(N(C)C)C2O)[C@](C)(OC)C[C@@H](C)C(=O)[C@H](C)[C@H]2N(CC#CCn3cc(-c4cnccn4)nn3)C(=O)O[C@]12C (some centres unmarked)"
measurement_type = "MIC"
result_qualifier = "="
assay_value = 0.5


###

MIC values for the compounds below.
tested on: E. coli MP-9 ATCC25922:tolC; experiment: CLSI broth dilution MIC determination; format: cell-based; details: Escherichia coli, ATCC25922
MEASUREMENT_TYPE: MIC (µg/mL)

[[record]]
compound = "CC[C@H]1OC(=O)[C@@](C)(F)C(=O)[C@H](C)[C@@H](OC2OC(C)CC(N(C)C)C2O)[C@](C)(OC)C[C@@H](C)C(=O)[C@H](C)[C@H]2N(CCCCn3cc(-c4cccc(N)c4)nn3)C(=O)O[C@]12C (stereo partly shown) [Solithro, solithromycin, reference compound]"
display_unit = "µg/mL"
result_qualifier = "="
assay_value = 4

[[record]]
compound = "CC[C@H]1OC(=O)[C@@](C)(F)C(=O)[C@H](C)[C@@H](O[C@@H]2OC(C)CC(N(C)C)C2O)[C@](C)(OC)C[C@@H](C)C(=O)[C@H](C)[C@H]2N(CC#CCn3cc(-c4cc(OC)ccn4)nn3)C(=O)O[C@]12C (stereo partly shown)"
display_unit = "µg/mL"
result_qualifier = "="
assay_value = 2

[[record]]
compound = "CC[C@H]1OC(=O)[C@@](C)(F)C(=O)[C@H](C)[C@@H](O[C@@H]2OC(C)CC(N(C)C)C2O)[C@](C)(OC)C[C@@H](C)C(=O)[C@H](C)[C@H]2N(CC#CCn3cc(-c4cc(F)nc(F)n4)nn3)C(=O)O[C@]12C (stereo partly shown)"
display_unit = "µg/mL"
result_qualifier = ">"
assay_value = 64

[[record]]
compound = "CC[C@H]1OC(=O)[C@H](C)C(=O)[C@H](C)[C@@H](O[C@@H]2OC(C)CC(N(C)C)C2O)[C@](C)(OC)C[C@@H](C)C(=O)[C@H](C)[C@H]2N(NC/C=C/c3ccnc4ccccc34)C(=O)O[C@]12C (stereo partly shown)"
display_unit = "µg/mL"
result_qualifier = "="
assay_value = 16


###

system: P. aeruginosa ATCC 27853; test: CLSI broth dilution MIC determination; format: cell-based; conditions: Pseudomonas aeruginosa, ATCC27853; P. aeruginosa ATCC 27853 (MP-3); read-out: MIC
Each item that follows carries a reported MIC.
MEASUREMENT_TYPE: MIC

[[record]]
compound = "CC[C@H]1OC(=O)[C@@](C)(F)C(=O)[C@H](C)[C@@H](O[C@@H]2OC(C)CC(N(C)C)C2O)[C@](C)(OC)C[C@@H](C)C(=O)[C@H](C)[C@H]2N(CC#CCn3cc(-c4cc(=O)cc[nH]4)nn3)C(=O)O[C@]12C (some centres unmarked) [FSM-100597]"
study_system = "P. aeruginosa ATCC 27853"
measurement_type = "MIC"
assay_value = "> 64 µg/mL"

[[record]]
compound = "CC[C@H]1OC(=O)[C@H](C)C(=O)[C@H](C)[C@@H](O[C@@H]2OC(C)CC(N(C)C)C2O)[C@](C)(OC)C[C@@H](C)C(=O)[C@H](C)[C@H]2N(CC#CCn3cc(-c4cccnn4)nn3)C(=O)O[C@]12C (some centres unmarked) [FSM-130216]"
study_system = "P. aeruginosa ATCC 27853"
measurement_type = "MIC"
assay_value = "> 64 µg/mL"

[[record]]
compound = "CC[C@H]1OC(=O)[C@@](C)(F)C(=O)[C@H](C)[C@@H](O[C@@H]2OC(C)CC(N(C)C)C2O)[C@](C)(OC)C[C@@H](C)C(=O)[C@H](C)[C@H]2N(CC#CCn3cc(-c4cc(N)ncn4)nn3)C(=O)O[C@]12C (some centres unmarked) [FSM-22745]"
study_system = "P. aeruginosa ATCC 27853"
measurement_type = "MIC"
assay_value = "> 64 µg/mL"

[[record]]
compound = "CC[C@H]1OC(=O)[C@H](C)C(=O)[C@H](C)[C@@H](O[C@@H]2OC(C)CC(N(C)C)C2O)[C@](C)(OC)C[C@@H](C)C(=O)[C@H](C)[C@H]2N(NC/C=C/c3ccnc4ccccc34)C(=O)O[C@]12C (some centres unmarked) [FSM-140135]"
study_system = "P. aeruginosa ATCC 27853"
measurement_type = "MIC"
assay_value = "> 64 µg/mL"

[[record]]
compound = "CC[C@H]1OC(=O)[C@@](C)(F)C(=O)[C@H](C)[C@@H](O[C@@H]2OC(C)CC(N(C)C)C2O)[C@](C)(OC)C[C@@H](C)C(=O)[C@H](C)[C@H]2N(CC#CCn3cc(-c4nccc(N)n4)nn3)C(=O)O[C@]12C (some centres unmarked) [FSM-22749]"
study_system = "P. aeruginosa ATCC 27853"
measurement_type = "MIC"
assay_value = "> 64 µg/mL"

[[record]]
compound = "CC[C@H]1OC(=O)[C@@](C)(F)C(=O)[C@H](C)[C@@H](OC2OC(C)CC(N(C)C)C2O)[C@](C)(OC)C[C@@H](C)C(=O)[C@H](C)[C@H]2N(CCCCn3cc(-c4cccc(N)c4)nn3)C(=O)O[C@]12C (some centres unmarked) [Solithro, solithromycin, reference compound]"
study_system = "P. aeruginosa ATCC 27853"
measurement_type = "MIC"
assay_value = "> 32 µg/mL"

[[record]]
compound = "CC[C@H]1OC(=O)[C@@](C)(F)C(=O)[C@H](C)[C@@H](O[C@@H]2OC(C)CC(N(C)C)C2O)[C@](C)(OC)C[C@@H](C)C(=O)C[C@H]2N(CCCCn3cc(-c4cccc(N)c4)nn3)C(=O)O[C@]12C (some centres unmarked) [FSM-21598]"
study_system = "P. aeruginosa ATCC 27853"
measurement_type = "MIC"
assay_value = "> 32 µg/mL"

[[record]]
compound = "CC[C@H]1OC(=O)[C@@](C)(F)C(=O)[C@H](C)[C@@H](O[C@@H]2OC(C)CC(N(C)C)C2O)[C@](C)(OC)C[C@@H](C)C(=O)[C@H](C)[C@H]2N(CC#CCn3cc(-c4cc(F)nc(F)n4)nn3)C(=O)O[C@]12C (some centres unmarked) [FSM-22750]"
study_system = "P. aeruginosa ATCC 27853"
measurement_type = "MIC"
assay_value = "> 64 µg/mL"

